# Measured target: human orexin-2 receptor (Homo sapiens (Human))
# Assay: Human orexin 2 receptor radioligand binding ([3H]-EMPA competition)
# Measurement setup: HEK293 cells stably expressing human orexin-2 receptor; [3H]-EMPA 5 nM final; apparent Ki=IC50/(1+C/Kd), Kd=2 nM; read-out: OR 2 Ki
Could you please report measured Ki for the items listed next?
Use µM as the unit, but write only the number.

For the compound CCOc1cccc(N2CC3CN(C(=O)c4ccccc4-n4nccn4)CC3C2)n1 (centres unmarked) , what Ki is on record?
0.085

And what about the compound Cc1cc(N(C)C)nc(N2CC3CN(C(=O)c4cc(F)ccc4-n4nccn4)CC3C2)n1 (centres unmarked) ?
0.422

Could you do the same for Cc1cnc(C)c(N2CC3CN(C(=O)c4ccccc4-n4nccn4)CC3C2)n1 (centres unmarked) , please?
0.033

Please answer likewise for COc1ccc(C(=O)N2CC3CN(c4nc(C)cc(C)n4)CC3C2)c(-c2ncccn2)c1 (centres unmarked)
0.033

Next record, please: Cc1cc(C)nc(N2CC3CN(C(=O)c4cccnc4-c4ccn[nH]4)CC3C2)n1 (centres unmarked)
0.069

Item: Cc1cc(C)nc(N2CC3CN(C(=O)c4occc4C)CC3C2)n1 (centres unmarked)
10

Now this one: CCOc1ccc2ccccc2c1C(=O)N1CC2CN(c3nccc(-c4ccccc4)n3)CC2C1 (centres unmarked)
0.095

Same thing, different compound: O=C(c1ccccc1-c1ccccc1)N1CC2CN(c3nccc(-c4ccco4)n3)CC2C1 (centres unmarked)
0.425

###

What pKi was measured for each of the following?
# Measured target: human orexin-2 receptor (Homo sapiens (Human), UniProt O43614)
# Sequence (O43614 whole entry): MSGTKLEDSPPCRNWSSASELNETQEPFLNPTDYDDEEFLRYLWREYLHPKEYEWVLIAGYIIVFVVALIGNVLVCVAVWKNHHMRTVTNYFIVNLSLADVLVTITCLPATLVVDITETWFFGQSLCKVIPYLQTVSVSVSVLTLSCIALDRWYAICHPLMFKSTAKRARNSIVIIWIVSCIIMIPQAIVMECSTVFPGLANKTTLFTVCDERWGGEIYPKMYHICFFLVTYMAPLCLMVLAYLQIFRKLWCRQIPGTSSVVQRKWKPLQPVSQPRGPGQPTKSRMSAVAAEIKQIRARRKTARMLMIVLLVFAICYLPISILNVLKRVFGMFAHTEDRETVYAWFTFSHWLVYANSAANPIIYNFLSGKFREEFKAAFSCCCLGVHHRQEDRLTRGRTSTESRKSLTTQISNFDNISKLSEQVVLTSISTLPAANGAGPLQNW
# Assay: Human orexin 2 receptor radioligand binding ([3H]-EMPA competition)
# Measurement setup: read-out: OR 2 Ki
For clarity, pKi is expressed as the negative log10 of concentration in mol/L.

I have this compound here, Cc1nc(N2CC3CN(C(=O)c4ccccc4-c4ncn(C)n4)CC3C2)ncc1Cl (stereo not drawn) , and I need its recorded pKi.
7.54

Here is the next compound: Cc1ccc(-c2c(F)cccc2C(=O)N2CC3CN(c4nc(C)cc(C)n4)CC3C2)nc1 (stereo not drawn)
7.14

###

# Measured target: human orexin-2 receptor (Homo sapiens (Human), UniProt O43614)
# Assay: Human orexin 2 receptor radioligand binding ([3H]-EMPA competition)
# Measurement setup: HEK293 cells stably expressing human orexin-2 receptor; [3H]-EMPA 5 nM final; apparent Ki=IC50/(1+C/Kd), Kd=2 nM; read-out: OR 2 Ki
Property: Ki (nM)
Number only, in nM; omit the unit.

Can you look up the measured Ki of COc1cc(OC)nc(N2CC3CN(C(=O)c4ccc(F)cc4-n4nccn4)CC3C2)n1 (centres unmarked) for me?
58

What do we get for O=C(c1ccccc1-c1nnc[nH]1)N1CC2CN(c3nc4ccccc4o3)CC2C1 (centres unmarked) ?
256

What do you get for O=C(c1ccccc1-c1cccc(Cl)c1)N1CC2CN(c3cnc4ccccc4n3)CC2C1 (centres unmarked) ?
356

Same read-out for O=C(c1ccccc1-n1cccn1)N1CC2CN(c3nccc(-c4ccccc4)n3)CC2C1 (centres unmarked) ?
364

What about this compound? Cc1nc(N2CC3CN(C(=O)c4ccccc4-c4ncn(C)n4)CC3C2)nc(C)c1Cl (centres unmarked)
4

What do you have for Cc1cc(C)nc(N2CC3CN(C(=O)c4ccccc4OC(F)(F)F)CC3C2)n1 (centres unmarked) ?
61

And for CCc1c(C)nc(N2CC3CN(C(=O)c4ccccc4-c4ncn(C)n4)CC3C2)nc1C (centres unmarked) ?
10

Query CN(C)c1nc(N2CC3CN(C(=O)c4ccccc4-n4nccn4)CC3C2)cc(C(F)(F)F)n1 (centres unmarked) next
15
